# study_target: Integrin alpha-IIb/beta-3 (Homo sapiens, UniProt P05106+P08514)
# Sequence (P05106 27-788 limits assumed): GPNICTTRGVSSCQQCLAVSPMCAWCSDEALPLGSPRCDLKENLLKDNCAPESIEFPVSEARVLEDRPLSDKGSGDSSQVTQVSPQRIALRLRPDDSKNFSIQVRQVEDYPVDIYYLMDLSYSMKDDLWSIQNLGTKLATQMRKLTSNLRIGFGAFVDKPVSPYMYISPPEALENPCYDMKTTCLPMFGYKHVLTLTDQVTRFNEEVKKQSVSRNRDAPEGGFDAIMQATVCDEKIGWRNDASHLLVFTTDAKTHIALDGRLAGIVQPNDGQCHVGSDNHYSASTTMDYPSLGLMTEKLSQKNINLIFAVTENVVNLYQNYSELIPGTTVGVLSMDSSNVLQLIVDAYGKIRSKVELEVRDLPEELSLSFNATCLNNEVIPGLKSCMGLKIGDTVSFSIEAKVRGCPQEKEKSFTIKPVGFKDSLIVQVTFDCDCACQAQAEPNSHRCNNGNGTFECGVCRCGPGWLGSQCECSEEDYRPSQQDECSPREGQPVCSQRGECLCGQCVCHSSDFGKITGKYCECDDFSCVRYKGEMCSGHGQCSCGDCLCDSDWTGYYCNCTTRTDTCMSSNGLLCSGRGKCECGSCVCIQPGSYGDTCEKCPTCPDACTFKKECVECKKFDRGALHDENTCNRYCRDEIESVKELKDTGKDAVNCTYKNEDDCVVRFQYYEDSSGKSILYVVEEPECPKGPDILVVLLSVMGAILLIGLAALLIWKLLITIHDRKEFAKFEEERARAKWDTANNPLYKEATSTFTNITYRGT
# Sequence (P08514 32-887 limits assumed): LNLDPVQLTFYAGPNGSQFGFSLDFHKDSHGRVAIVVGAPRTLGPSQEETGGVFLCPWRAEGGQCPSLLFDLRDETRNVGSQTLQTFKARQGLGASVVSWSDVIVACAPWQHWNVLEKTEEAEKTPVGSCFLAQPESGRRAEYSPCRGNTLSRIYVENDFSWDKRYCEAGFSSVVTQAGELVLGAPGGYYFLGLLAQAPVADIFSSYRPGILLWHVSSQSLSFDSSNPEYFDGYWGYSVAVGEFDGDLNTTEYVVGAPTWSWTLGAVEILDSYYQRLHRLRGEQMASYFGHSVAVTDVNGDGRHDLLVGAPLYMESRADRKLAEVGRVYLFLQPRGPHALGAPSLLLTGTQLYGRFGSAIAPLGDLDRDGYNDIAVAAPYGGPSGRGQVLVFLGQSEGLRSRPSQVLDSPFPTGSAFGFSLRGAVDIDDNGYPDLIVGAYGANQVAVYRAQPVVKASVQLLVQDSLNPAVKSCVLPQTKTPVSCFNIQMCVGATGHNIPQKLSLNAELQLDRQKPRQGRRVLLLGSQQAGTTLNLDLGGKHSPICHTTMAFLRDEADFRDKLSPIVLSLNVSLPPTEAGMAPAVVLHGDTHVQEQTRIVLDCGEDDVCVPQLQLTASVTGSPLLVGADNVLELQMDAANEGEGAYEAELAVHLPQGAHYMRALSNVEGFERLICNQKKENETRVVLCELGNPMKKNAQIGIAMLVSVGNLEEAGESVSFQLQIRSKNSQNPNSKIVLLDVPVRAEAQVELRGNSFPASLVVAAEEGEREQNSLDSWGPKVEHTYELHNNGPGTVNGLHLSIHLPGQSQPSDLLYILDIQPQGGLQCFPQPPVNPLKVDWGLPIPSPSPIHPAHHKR
# Sequence (P08514 891-1039 limits assumed): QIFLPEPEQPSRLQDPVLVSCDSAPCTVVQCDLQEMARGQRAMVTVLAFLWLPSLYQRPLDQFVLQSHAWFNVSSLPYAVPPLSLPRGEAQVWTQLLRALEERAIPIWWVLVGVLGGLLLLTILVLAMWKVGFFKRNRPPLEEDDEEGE
# assay_overview: Fibrinogen receptor binding affinity was determined by assaying for inhibition of [3H]1 binding to purified Fibrinogen Receptor isolated from human platelets and reconstituted in liposomes
Catalogue of Ki readings, one per entry.

INSERT INTO measurements (molecule, observed_property, result) VALUES
  ('N=C(N)c1ccc(C(=O)Nc2ccc3c(c2)CN(CCC(=O)O)C(=O)CN3)cc1', 'Ki', '290 nM');

Ki reading for O=C(O)CC1Nc2cc(C(=O)NCCC3CCNCC3)ccc2CN(CCc2ccccc2)C1=O (centres undefined) : 4.7 nM

Ki reading for N=C(N)c1ccc(C(=O)Nc2ccc3c(c2)NC(CC(=O)O)C(=O)N(CCc2ccccc2)C3)cc1 (centres undefined) : 2 nM
